System: MCF7 breast
ASSAY NOTES: NCI-60 one-dose screen, 48 h
EXPERIMENTAL CONTEXT: 10 µM unless noted
Compounds without any hit were thinned out: in the full panel of roughly 83,000, 20% have a hit. Activity calls are given as the source filed them. The calls were made as follows: active = growth percent below 10; inactive = the rest.
Outcomes: active, inactive

>  <COMPOUND>
COc1cc(/C=N/NC(=O)c2ccc(OCc3nc4ccc(Cl)cc4[nH]3)cc2)cc(OC)c1OC

>  <CLASS LABEL>
inactive

$$$$
>  <COMPOUND>
O=C(CSc1nnc(-c2ccc(-c3nc4ccc(Cl)cc4[nH]3)cc2)o1)Nc1ccc(Br)cc1

>  <CLASS LABEL>
inactive

$$$$
>  <COMPOUND>
COc1sc(/C=N/NC(=O)c2[nH]c3ccc(Br)cc3c2-c2ccccc2)cc1Cl

>  <CLASS LABEL>
active

$$$$
>  <COMPOUND>
COc1ccc(NC(=O)Cn2c(/C=C/c3ccc([N+](=O)[O-])cc3)nc3ccccc3c2=O)cc1

>  <CLASS LABEL>
inactive

$$$$
>  <COMPOUND>
CCc1ccccc1NC(=O)N/C(N)=N/c1nc2ccccc2s1

>  <CLASS LABEL>
inactive

$$$$
>  <COMPOUND>
Cc1nc(Nc2ccccn2)sc1C1=NNC(c2ccccc2F)C1 (stereo unspecified)

>  <CLASS LABEL>
inactive

$$$$

====

System: HOP-62 NSCLC
ASSAY NOTES: NCI-60 one-dose screen, 48 h (100 = growth as untreated, 0 = no growth, -100 = all killed)
EXPERIMENTAL CONTEXT: 10 µM unless noted
The panel holds about 83,000 compounds, 20% with a hit somewhere; the sample as a whole holds those more often.
Dear colleague, classification is by growth, with ranges listed here: bin A = under -20%, bin B = from -20% up to 70%, bin C = 70% and over

>  <COMPOUND>
O=C(CSc1nnc(-c2ccc(-c3nc4ccc(Cl)cc4[nH]3)cc2)o1)Nc1ccc(Br)cc1

>  <CLASS LABEL>
bin A

$$$$
>  <COMPOUND>
COc1ccc(NC(=O)CSc2nnc(-c3ccc(-c4nc5ccccc5[nH]4)cc3)o2)cc1

>  <CLASS LABEL>
bin B

$$$$
>  <COMPOUND>
O=C(N/N=C/c1ccoc1)c1[nH]c2ccc(Br)cc2c1-c1ccccc1

>  <CLASS LABEL>
bin A

$$$$
>  <COMPOUND>
O=[N+]([O-])c1cccc(-c2nnc3c(/C=C/c4ccc(F)cc4)nc4ccccc4n23)c1

>  <CLASS LABEL>
bin C

$$$$
>  <COMPOUND>
CS(=O)(=O)Nc1cc(-c2ccc3ncnc(Nc4ccc(OCc5cccnc5)c(Cl)c4)c3c2)cnc1Cl

>  <CLASS LABEL>
bin B

$$$$
>  <COMPOUND>
CNS(=O)(=O)N1CCc2c(Br)c3c(c(OC)c2C1CCc1ccccc1)OCO3 (configuration not stated)

>  <CLASS LABEL>
bin B

$$$$
>  <COMPOUND>
CCN1CCN(Cc2ccc(C(=O)Nc3cccc(Nc4ccc5c(OC)cccc5n4)c3)cc2C(F)(F)F)CC1

>  <CLASS LABEL>
bin A

$$$$
>  <COMPOUND>
N#C/C(=C1/C(=O)Nc2ccccc21)c1nnc(NC(=O)c2ccc(-n3c(=O)[nH]c4ccccc4c3=O)cc2)s1

>  <CLASS LABEL>
bin B

$$$$
>  <COMPOUND>
Nc1nnc(-c2cncc(Br)c2)c(-c2c[nH]c3ccc(Br)cc23)n1

>  <CLASS LABEL>
bin C

$$$$
>  <COMPOUND>
COc1ccc([C@H]2C(C(=O)c3ccc(Cl)cc3)C3(N[C@@H]2c2ccccc2)C(=O)Nc2ccccc23)cc1 (some centres not stated)

>  <CLASS LABEL>
bin B

$$$$
>  <COMPOUND>
O=C1Nc2ccccc2/C1=C/C(=O)c1cc2ccccc2oc1=O

>  <CLASS LABEL>
bin C

$$$$
>  <COMPOUND>
COC(=O)c1c(C(=O)OC)c2ccc3c4ccccc4ccc3n2c1C(=O)OC

>  <CLASS LABEL>
bin C

$$$$
>  <COMPOUND>
COc1ccc(N=Nc2c(N)nn3c(N)c(C#N)c(-c4ccc(F)cc4)nc23)cc1

>  <CLASS LABEL>
bin B

$$$$
>  <COMPOUND>
NCCCCn1c(SCCc2c[nH]c3ccccc23)nnc1-c1ccc2ccccc2n1

>  <CLASS LABEL>
bin A

$$$$
>  <COMPOUND>
COc1ccc(NC2=C(I)C(=O)C(C)=C(C)C2=O)cc1

>  <CLASS LABEL>
bin C

$$$$
>  <COMPOUND>
c1n[nH]cc1-c1nc2ccc3cn[nH]c3c2c2c1CCCC2

>  <CLASS LABEL>
bin C

$$$$

====

Listing of recorded growth by entry.
Test system: UO-31 renal
ASSAY NOTES: NCI-60 one-dose screen, 48 h (100 = growth as untreated, 0 = no growth, -100 = all killed)
EXPERIMENTAL CONTEXT: 10 µM unless noted
About 83,000 compounds went through this panel and 20% of them were active in at least one assay; those are over-represented in the sample as a whole.

>  <COMPOUND>
Cc1ccc(-c2cc(C(=O)N=Nc3c(O)[nH]c4ccc(F)cc34)c3ccccc3n2)cc1

>  <UNIT OF MEASURE>
%

>  <growth>
77.5

$$$$
>  <COMPOUND>
Cn1cc(-c2cc(N)n3nc(-c4c[nH]c5ccccc45)cc3n2)c2cc(F)ccc21

>  <UNIT OF MEASURE>
%

>  <growth>
59.7

$$$$
>  <COMPOUND>
O=C(Nc1ccc(Br)cc1)Nc1ccc(-c2ccc3c(c2)NC(=O)/C3=C\c2ccc[nH]2)cc1

>  <UNIT OF MEASURE>
%

>  <growth>
20.6

$$$$
>  <COMPOUND>
N#C/C(=C1/C(=O)Nc2ccccc21)c1nnc(NC(=O)c2ccc(-n3c(=O)[nH]c4ccccc4c3=O)cc2)s1

>  <UNIT OF MEASURE>
%

>  <growth>
29.5

$$$$
>  <COMPOUND>
FC(F)(F)c1cc2c(Cl)ncnc2n1CCN1CCOCC1

>  <UNIT OF MEASURE>
%

>  <growth>
-92.7

$$$$
>  <COMPOUND>
O=C1Nc2cc(-c3ccc(NS(=O)(=O)c4ccc(F)c(Cl)c4)cc3)ccc2/C1=C/c1ccc[nH]1

>  <UNIT OF MEASURE>
%

>  <growth>
35.6

$$$$
>  <COMPOUND>
Cc1ccc(S(=O)(=O)Nc2ccc(-c3ccc4c(c3)NC(=O)/C4=C\c3ccc[nH]3)cc2)cc1

>  <UNIT OF MEASURE>
%

>  <growth>
93.9

$$$$
>  <COMPOUND>
CN1C(=O)C(O)(CC(=O)c2cc3ccccc3oc2=O)c2ccccc21 (stereo unspecified)

>  <UNIT OF MEASURE>
%

>  <growth>
57.3

$$$$
>  <COMPOUND>
Cc1cccc(/C=C/c2ccc(NC(=S)NCCCCN(C)C)cc2)c1

>  <UNIT OF MEASURE>
%

>  <growth>
-93.2

$$$$
>  <COMPOUND>
O=C(N/N=C/c1ccc(Cl)o1)c1[nH]c2ccc(Br)cc2c1-c1ccccc1

>  <UNIT OF MEASURE>
%

>  <growth>
-34.5

$$$$
>  <COMPOUND>
CCCCNC(=S)Nc1ccc(OCc2nc3ccc(Cl)cc3[nH]2)cc1

>  <UNIT OF MEASURE>
%

>  <growth>
5.99

$$$$
>  <COMPOUND>
COc1ccc(NC(=O)Nc2nc3ccc([N+](=O)[O-])cc3s2)cc1

>  <UNIT OF MEASURE>
%

>  <growth>
-5.06

$$$$
>  <COMPOUND>
CCCN(CCC)S(=O)(=O)c1ccc(C(=O)O)cc1.CCCN(CCC)S(=O)(=O)c1ccc(C(=O)O)cc1.[Cl][Pt+2][Cl].[NH2-].[NH2-]

>  <UNIT OF MEASURE>
%

>  <growth>
98.4

$$$$
>  <COMPOUND>
CN(CCSSCCN1CCOCC1)C(=O)Oc1cc2c(c3ccccc13)[C@H](CCl)CN2C(=O)c1cc2cc(OCCCN3CCC3)ccc2[nH]1

>  <UNIT OF MEASURE>
%

>  <growth>
-16.7

$$$$
>  <COMPOUND>
C#CCN(C)CCCOc1ccc(N(CC)C(=O)c2cc(C(C)C)c(O)cc2O)cc1Cl

>  <UNIT OF MEASURE>
%

>  <growth>
8.11

$$$$
>  <COMPOUND>
O=C(N/N=C/c1c[nH]c2ccccc12)Nc1ccccc1Cl

>  <UNIT OF MEASURE>
%

>  <growth>
23.2

$$$$
>  <COMPOUND>
Oc1cncc(-c2ccc3ncnc(N4CCc5cc(F)c(Cl)cc54)c3c2)c1

>  <UNIT OF MEASURE>
%

>  <growth>
35.7

$$$$
>  <COMPOUND>
Cc1cn(-c2cc(NC(=O)c3ccc(C)c(-n4cc(-c5cnc6cccnn56)nn4)c3)cc(C(F)(F)F)c2)cn1

>  <UNIT OF MEASURE>
%

>  <growth>
58.2

$$$$
>  <COMPOUND>
Cc1ccc2c(c1)nc(-c1ccccc1)n2CC(=O)N=Nc1c(O)[nH]c2ccc(Cl)cc12

>  <UNIT OF MEASURE>
%

>  <growth>
-89.6

$$$$
>  <COMPOUND>
CCc1ccc(SC2c3cc(OC)ccc3Oc3nc(N)c(C#N)c(N)c32)cc1 (stereo unspecified)

>  <UNIT OF MEASURE>
%

>  <growth>
4.16

$$$$
>  <COMPOUND>
COc1ccc2[nH]cc(-c3cc4nc(-c5cn(C)c6ncccc56)cc(N)n4n3)c2c1

>  <UNIT OF MEASURE>
%

>  <growth>
12.3

$$$$
>  <COMPOUND>
COc1cc2cc(C(=O)N3C[C@@H](CCl)c4c3cc(OC(=O)N(CCC(=O)N3CCN(C)CC3)[C@H]3CCSSC3)c3ccccc43)[nH]c2c(OC)c1OC

>  <UNIT OF MEASURE>
%

>  <growth>
-26.9

$$$$
>  <COMPOUND>
C#CCCCNCCNc1ccnc2cc(Cl)ccc12

>  <UNIT OF MEASURE>
%

>  <growth>
60.8

$$$$
>  <COMPOUND>
COc1cc(C2CC(c3ccc(S(=O)(=O)NCCNc4nc(N(C)C)nc(N5CCOCC5)n4)cc3)=Nc3c(N)nc(N)nc3N2)cc(OC)c1OC (stereo unspecified)

>  <UNIT OF MEASURE>
%

>  <growth>
80.5

$$$$
>  <COMPOUND>
COc1ccccc1Nc1nnc(-c2c[nH]c3ccccc23)o1

>  <UNIT OF MEASURE>
%

>  <growth>
32.5

$$$$
>  <COMPOUND>
COc1cc(CNC(=O)C[C@H](C)CCC=C(C)C)ccc1OCc1cn(-c2ccc(Br)cc2)nn1

>  <UNIT OF MEASURE>
%

>  <growth>
62.9

$$$$
>  <COMPOUND>
N#CC1=C(c2ccco2)Nc2c(c(-c3ccccc3)nn2-c2ccccc2)C12C(=O)Nc1ccc(Cl)cc12 (stereo unspecified)

>  <UNIT OF MEASURE>
%

>  <growth>
43.1

$$$$
>  <COMPOUND>
c1ccc(CSc2nnc(-c3ccc4nc(-c5ccccc5)[nH]c4c3)o2)cc1

>  <UNIT OF MEASURE>
%

>  <growth>
40.6

$$$$
>  <COMPOUND>
OC(c1ccccc1)(c1ccccc1)C1CCN(c2ccc3nnc(Cl)n3n2)CC1

>  <UNIT OF MEASURE>
%

>  <growth>
-74.1

$$$$
>  <COMPOUND>
COc1cccc(C(N)=Nc2ccc(OCCCCCCCCn3cncn3)cc2)c1

>  <UNIT OF MEASURE>
%

>  <growth>
39.5

$$$$
>  <COMPOUND>
O=C(c1ccc(O)cc1)C1[C@H](c2ccc(Cl)cc2)[C@@H](c2ccccc2)NC12C(=O)Nc1ccccc12 (stereo partly specified)

>  <UNIT OF MEASURE>
%

>  <growth>
3.54

$$$$
